Conditions: in chloroform, 313.15 K
Reported metric: solubility (mole fraction)

State its solubility (mole fraction) for this compound: O=C1CCCC(=O)C1
0.4

====

Settings: in isopropyl acetate, 318.15 K
Reported metric: solubility (mole fraction)
Lab note: record just the number, no unit beside it.

State its solubility (mole fraction) for this compound: O=C1CCCC(=O)C1
0.0302

====

Details: in ethyl butyrate, 308.15 K
Reported metric: solubility (mole fraction)

State its solubility (mole fraction) for this compound: O=C1CCCC(=O)C1
0.0184

====

Details: in acetone, 318.15 K
Reported metric: solubility (mole fraction)
Lab note: record just the number, no unit beside it.

State its solubility (mole fraction) for this molecule: O=C1CCCC(=O)C1
0.211
